For each record, write down the corresponding IC50.
Target: 293 cells cotransfected with αv and β3 subunits of the vitronectin receptor αvβ3, binding to human vitronectin (Vn) (Homo sapiens, UniProt P05106+P06756)
Sequence (P05106 whole entry): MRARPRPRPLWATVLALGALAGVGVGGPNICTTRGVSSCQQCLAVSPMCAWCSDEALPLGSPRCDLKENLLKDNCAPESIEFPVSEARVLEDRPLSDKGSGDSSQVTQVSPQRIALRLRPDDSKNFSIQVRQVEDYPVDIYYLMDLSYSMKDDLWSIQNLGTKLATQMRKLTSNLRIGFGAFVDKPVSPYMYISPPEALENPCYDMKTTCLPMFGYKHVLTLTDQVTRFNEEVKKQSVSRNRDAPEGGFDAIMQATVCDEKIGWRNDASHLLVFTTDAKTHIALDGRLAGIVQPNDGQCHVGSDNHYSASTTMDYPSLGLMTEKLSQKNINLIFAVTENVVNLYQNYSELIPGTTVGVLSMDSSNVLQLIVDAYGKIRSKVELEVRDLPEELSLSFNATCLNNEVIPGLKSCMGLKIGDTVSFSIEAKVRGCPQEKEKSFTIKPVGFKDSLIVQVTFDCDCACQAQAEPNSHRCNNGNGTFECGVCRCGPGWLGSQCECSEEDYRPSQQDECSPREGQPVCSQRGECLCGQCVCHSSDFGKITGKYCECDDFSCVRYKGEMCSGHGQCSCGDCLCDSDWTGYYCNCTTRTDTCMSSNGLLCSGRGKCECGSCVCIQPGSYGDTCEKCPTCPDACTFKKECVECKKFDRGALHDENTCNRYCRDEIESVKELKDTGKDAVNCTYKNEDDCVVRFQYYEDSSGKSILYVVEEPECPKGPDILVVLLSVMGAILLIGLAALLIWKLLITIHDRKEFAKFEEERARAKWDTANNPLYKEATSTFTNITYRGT
Sequence (P06756 whole entry): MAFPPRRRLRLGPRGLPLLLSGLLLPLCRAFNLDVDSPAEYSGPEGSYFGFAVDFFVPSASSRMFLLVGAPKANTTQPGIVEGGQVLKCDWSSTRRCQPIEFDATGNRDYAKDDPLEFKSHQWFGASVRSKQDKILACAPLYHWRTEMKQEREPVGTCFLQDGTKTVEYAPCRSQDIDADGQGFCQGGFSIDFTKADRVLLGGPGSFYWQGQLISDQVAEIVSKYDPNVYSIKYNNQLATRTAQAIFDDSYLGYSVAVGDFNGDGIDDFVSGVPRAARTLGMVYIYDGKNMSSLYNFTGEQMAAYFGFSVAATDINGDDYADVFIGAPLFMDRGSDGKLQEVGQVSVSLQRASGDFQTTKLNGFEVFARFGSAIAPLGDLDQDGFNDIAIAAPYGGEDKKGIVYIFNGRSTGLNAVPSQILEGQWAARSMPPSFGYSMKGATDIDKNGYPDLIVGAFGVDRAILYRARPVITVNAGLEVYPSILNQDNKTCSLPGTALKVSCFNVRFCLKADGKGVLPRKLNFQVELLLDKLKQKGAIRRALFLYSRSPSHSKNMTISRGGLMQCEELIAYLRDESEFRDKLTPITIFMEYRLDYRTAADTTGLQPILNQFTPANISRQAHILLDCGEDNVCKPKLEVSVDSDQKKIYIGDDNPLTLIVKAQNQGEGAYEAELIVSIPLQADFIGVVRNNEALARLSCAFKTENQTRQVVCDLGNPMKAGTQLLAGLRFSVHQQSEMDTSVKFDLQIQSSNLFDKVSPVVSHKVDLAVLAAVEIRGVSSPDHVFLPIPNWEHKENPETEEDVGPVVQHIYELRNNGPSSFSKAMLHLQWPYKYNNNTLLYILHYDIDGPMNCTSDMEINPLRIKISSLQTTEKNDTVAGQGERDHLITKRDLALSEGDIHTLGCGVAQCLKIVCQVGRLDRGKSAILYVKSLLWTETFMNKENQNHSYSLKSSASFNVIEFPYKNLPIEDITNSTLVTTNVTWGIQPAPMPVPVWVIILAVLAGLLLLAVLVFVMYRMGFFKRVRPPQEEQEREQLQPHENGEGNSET
Assay: Vitronectin/293 cell test (inhibition of binding of 293 cells to human vitronectin)
Settings: inhibition of binding of αvβ3-expressing 293 cells to human vitronectin
Give bare numbers, in nM.

O=C(CCCCc1ccc(C[C@H](NS(=O)(=O)c2cccc3ccccc23)C(=O)O)s1)NC1=NCCCN1 | 420
CC(C)(C)c1ccc(S(=O)(=O)N[C@@H](Cc2ccc(CCCCC(=O)NC3=NCCCN3)s2)C(=O)O)cc1 | 6900
O=C(CCCCc1ccc(C[C@H](NS(=O)(=O)c2ccccc2)C(=O)O)s1)NC1=NCCCN1 | 1000

Shifting focus to the compound that follows.
### Prompt Name the reported IC50 value associated with the compound CCCS(=O)(=O)N[C@@H](Cc1ccc(CCCCC(=O)NC2=NCCCN2)s1)C(=O)O
### Response 1000

Data origin: patent US6762190B2
